assay-protocol: half-life in humans (clinical trials)
Format: in vivo, Human
experimental-context: human, plasma, oral, 1 mg; read-out: observed half-life in humans (converted)
endpoint-label: half-life (h)
Your answer is read as h, so omit the unit and give the number.

Sure, the documented half-life for O=C(N[C@H]1CN2CCC1CC2)c1cc2cccc(Cl)c2s1 is 60

###

assay-protocol: half-life in humans (clinical trials)
Assay type: in vivo, Human
experimental-context: plasma, po; Human, p.o., 1 mg; read-out: t1/2
endpoint-label: half-life

Sure, the documented half-life for O=C(N[C@H]1CN2CCC1CC2)c1cc2cccc(Cl)c2s1 is 50.1 to 70.1 h

###

assay-protocol: maximum plasma concentration in human SAD/MAD clinical trials
Assay type: in vivo
experimental-context: human, plasma, oral, 0.1 mg, MAD2, Day 21, 0.1 mg
endpoint-label: Cmax (ng/mL)
Your answer is read as ng/mL, so omit the unit and give the number.

Sure, the documented Cmax for Cl.O=C(N[C@H]1CN2CCC1CC2)c1cc2cccc(Cl)c2s1 is 0.232

###

assay-protocol: maximum plasma concentration in human SAD/MAD clinical trials
Format: in vivo
experimental-context: human, plasma, oral, 1 mg, MAD2, Day 21, 1 mg
endpoint-label: Cmax (ng/mL)
Your answer is read as ng/mL, so omit the unit and give the number.

Sure, the documented Cmax for Cl.O=C(N[C@H]1CN2CCC1CC2)c1cc2cccc(Cl)c2s1 is 2.42

###

assay-protocol: maximum plasma concentration in human SAD/MAD clinical trials
Format: in vivo
experimental-context: human, plasma, oral, 0.3 mg, MAD3, Day 21, 0.3 mg
Protocol: Multiple ascending dose (MAD) human clinical trials were conducted. These values are 35-2000 times lower than would have anticipated if efficacy was to be achieved when the free plasma concentration reached the Ki or the ECref concentrations. […] These values are 9.4-667 times lower than expected.
endpoint-label: Cmax

Sure, the documented Cmax for Cl.O=C(N[C@H]1CN2CCC1CC2)c1cc2cccc(Cl)c2s1 is 0.704 ng/mL

###

assay-protocol: maximum plasma concentration in human SAD/MAD clinical trials
Type: in vivo
experimental-context: human, plasma, oral, 1 mg, MAD3, Day 21, 1 mg
endpoint-label: Cmax (ng/mL)
Your answer is read as ng/mL, so omit the unit and give the number.

Sure, the documented Cmax for Cl.O=C(N[C@H]1CN2CCC1CC2)c1cc2cccc(Cl)c2s1 is 1.99

###

assay-protocol: maximum plasma concentration in human SAD/MAD clinical trials
Format: in vivo
experimental-context: human, plasma, oral, 0.3 mg, MAD3, Day 1, 0.3 mg
endpoint-label: Cmax (ng/mL)
Your answer is read as ng/mL, so omit the unit and give the number.

Sure, the documented Cmax for Cl.O=C(N[C@H]1CN2CCC1CC2)c1cc2cccc(Cl)c2s1 is 0.182

###

assay-protocol: maximum plasma concentration in human SAD/MAD clinical trials
Type: in vivo
experimental-context: human, plasma, oral, 1 mg, MAD1, Day 7, 1 mg
endpoint-label: Cmax (ng/mL)
Your answer is read as ng/mL, so omit the unit and give the number.

Sure, the documented Cmax for Cl.O=C(N[C@H]1CN2CCC1CC2)c1cc2cccc(Cl)c2s1 is 2.12

###

assay-protocol: maximum plasma concentration in human SAD/MAD clinical trials
Assay type: in vivo
experimental-context: human, plasma, oral, 0.1 mg, MAD2, Day 1, 0.1 mg
endpoint-label: Cmax (ng/mL)
Your answer is read as ng/mL, so omit the unit and give the number.

Sure, the documented Cmax for Cl.O=C(N[C@H]1CN2CCC1CC2)c1cc2cccc(Cl)c2s1 is 0.055

###

assay-protocol: maximum plasma concentration in human SAD/MAD clinical trials
Assay type: in vivo
experimental-context: human, plasma, oral, 1 mg, SAD, Day 1, 1 mg
endpoint-label: Cmax (ng/mL)
Your answer is read as ng/mL, so omit the unit and give the number.

Sure, the documented Cmax for Cl.O=C(N[C@H]1CN2CCC1CC2)c1cc2cccc(Cl)c2s1 is 0.59
